FYI, the data here is from BigSolDB 2.1.

- test settings: in ethanol, 308.15 K
observable: solubility (mole fraction)
Provide a numeric answer; units are not to be included.

Challenge: Give the measured solubility (mole fraction) of COc1cc2nc(Cl)nc(N)c2cc1OC .
Response given: 0.000585

====

- test settings: in 1,4-dioxane, 298.15 K
observable: solubility (mole fraction)
Provide a numeric answer; units are not to be included.

Challenge: Give the measured solubility (mole fraction) of COc1cc2nc(Cl)nc(N)c2cc1OC .
Response given: 0.000154

====

- test settings: in isopropanol, 303.15 K
observable: solubility (mole fraction)
Provide a numeric answer; units are not to be included.

Challenge: Give the measured solubility (mole fraction) of COc1cc2nc(Cl)nc(N)c2cc1OC .
Response given: 0.000434
